- Test system: CCRIS mutagenicity, Ames/micronucleus/aberration tests
- EXPERIMENTAL PROTOCOL: CCRIS mutagenicity studies
- TEST PARAMETERS: Test System: AMES SALMONELLA TYPHIMURIUM; Strain/Indicator: TA1535; Metabolic Activation: RAT LIVER S-9, PHENOBARBITAL AND BETA-NAPHTHOFLAVONE; Method: PREINCUBATION
- Text: The CCRIS database contains chemical records with carcinogenicity, mutagenicity, tumor promotion, and tumor inhibition test results. It was developed by the National Cancer Institute (NCI). Data are derived from studies cited in primary journals, current awareness tools, NCI reports, and other sources. Test results have been reviewed by experts in carcinogenesis and mutagenesis. CCRIS provides historical information from the years 1985 - 2011. It is no longer updated. […]
Activity calls are given as the source filed them. The rule behind the calls is not given here.

COMPOUND: [B-]
mutagenic call: inactive; negative
//
COMPOUND: NC(N)=S
mutagenic call: inactive; negative
//
COMPOUND: CCC(C)c1ccccc1O (centres undefined)
mutagenic call: inactive; negative
//
COMPOUND: NC(=Nc1ccccc1)Nc1ccccc1
mutagenic call: inactive; negative
//
COMPOUND: Cc1ccccc1S(N)(=O)=O
mutagenic call: inactive; negative
//
COMPOUND: CCCC(=O)O
mutagenic call: inactive; negative
//
COMPOUND: CCOCCOC(C)=O
mutagenic call: inactive; negative
//
COMPOUND: O=C(O)c1ccc2c(c1)C(=O)OC2=O
mutagenic call: inactive; negative
//
COMPOUND: O=[N+]([O-])c1cc(Cl)ccc1Cl
mutagenic call: inactive; negative

These data points were gathered from PubChem BioAssay AID1259407.
